Target: RET(KD: 658-1114 G810R) (Homo sapiens, UniProt P07949, G810R)
Construct: 658-1114; expressed in transfected cells; host or cells: 293T.165 (293T cells, generated in-house)
Sequence (P07949 658-1114 G810R): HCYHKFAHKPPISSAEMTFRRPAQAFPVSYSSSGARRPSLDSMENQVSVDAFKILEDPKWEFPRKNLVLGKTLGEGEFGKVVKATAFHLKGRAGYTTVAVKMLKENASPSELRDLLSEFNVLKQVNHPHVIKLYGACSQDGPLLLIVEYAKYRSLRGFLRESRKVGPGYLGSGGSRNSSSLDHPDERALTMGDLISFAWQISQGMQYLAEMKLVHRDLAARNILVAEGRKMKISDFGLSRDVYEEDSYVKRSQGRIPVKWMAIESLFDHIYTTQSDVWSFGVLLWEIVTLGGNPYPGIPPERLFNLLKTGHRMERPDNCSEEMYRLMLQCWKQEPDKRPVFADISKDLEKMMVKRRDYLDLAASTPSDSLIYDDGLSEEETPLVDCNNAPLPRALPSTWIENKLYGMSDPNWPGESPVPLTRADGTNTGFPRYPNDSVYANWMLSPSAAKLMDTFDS
Assay: HiBiT-Degradation, RET G810R degradation assay (Nano-Glo HiBiT Lytic), 293T.165 cells
Format: cell-based
Details: HiBiT-Degradation
Measurement Label: 293T.165 RET(KD: 658-1114 G810R) 6.0 hours (Emax)

Compound: Cn1nc(N2CCC(=O)NC2=O)c2ccc(C3CCN(CC(=O)N4CCC(n5cc(-c6cc(-c7ccc(N8CCN(Cc9ccccn9)CC8)nc7)c7c(C#N)cnn7c6)cn5)CC4)CC3)cc21
Measured Result: +++ (<50% = +++)

Compound: N#Cc1cnn2cc(-c3ccc(N4CCN(C(=O)CN5CCC(c6ccc(NC7CCC(=O)NC7=O)cc6)CC5)CC4)cc3)cc(-c3ccc(N4CCC(Nc5ccccc5)CC4)nc3)c12 (centres unmarked)
Measured Result: ++++ (< 30% = ++++)

Compound: CCC1(C(=O)NC(C)C)CCN(c2ccc(-c3cc(-c4ccc(N5CCC(O)(CCN6CCC(c7ccc(NC8CCC(=O)NC8=O)cc7F)CC6)CC5)cc4)cn4ncc(C#N)c34)cn2)CC1 (centres unmarked)
Measured Result: ++++ (< 30% = ++++)

Compound: N#Cc1cnn2cc(-c3cnn(C4CCN(C(=O)CN5CCC(c6ccc(NC7CCC(=O)NC7=O)cc6F)CC5)CC4)c3)cc(-c3ccc(N4CCN(C(=O)Cc5ccc(F)cn5)CC4)nc3)c12 (centres unmarked)
Measured Result: ++++ (< 30% = ++++)

Compound: CCC1(C(=O)NC(C)C)CCN(c2ccc(-c3cc(-c4cnn(C5CCN(C(=O)CN6CCC(c7ccc(NC8CCC(=O)NC8=O)cc7F)CC6)CC5)c4)cn4ncc(C#N)c34)cc2)CC1 (centres unmarked)
Measured Result: +++ (<50% = +++)

* * *

Biological target: RET (658-1114) (Homo sapiens)
Construct: 658-1114; expressed in transfected cells; host or cells: 293T.144 (293T cells, generated in-house)
Sequence (P07949 658-1114): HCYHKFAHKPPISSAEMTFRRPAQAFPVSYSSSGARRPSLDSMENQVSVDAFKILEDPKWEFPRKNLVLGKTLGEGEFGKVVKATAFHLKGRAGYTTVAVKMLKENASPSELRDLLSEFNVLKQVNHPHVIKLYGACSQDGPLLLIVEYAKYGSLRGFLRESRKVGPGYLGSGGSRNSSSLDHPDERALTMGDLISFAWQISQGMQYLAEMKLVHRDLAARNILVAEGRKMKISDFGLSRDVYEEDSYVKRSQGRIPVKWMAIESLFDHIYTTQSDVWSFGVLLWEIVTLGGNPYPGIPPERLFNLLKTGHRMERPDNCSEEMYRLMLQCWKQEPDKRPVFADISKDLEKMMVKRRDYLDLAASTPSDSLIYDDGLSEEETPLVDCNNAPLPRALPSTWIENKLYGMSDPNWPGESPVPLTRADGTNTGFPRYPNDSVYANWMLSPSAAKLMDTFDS
Assay: HiBiT-Degradation, RET wild-type degradation assay (Nano-Glo HiBiT Lytic), 293T.144 cells
Type: cell-based
Measurement Label: 293T.144 RET (658-1114) 6.0 hours (IP) [nM]

Compound: N#Cc1cnn2cc(-c3cnn(C4CCC(N5CCN(c6ccc(NC7CCC(=O)NC7=O)cc6F)CC5)CC4)c3)nc(-c3ccc(N4C[C@H]5COC[C@@H](C4)N5CC4CCC(F)(F)CC4)nc3)c12 (single isomer, unassigned) [Compound 150]
Measured Result: ++++ (<50 nM = ++++)
//
Compound: CCC1(C(=O)NC(C)C)CCN(c2ccc(-c3nc(-c4cnn(C5CN(C(=O)CC6(O)CCN(c7ccc(NC8CCC(=O)NC8=O)cc7F)CC6)C5)c4)cn4ncc(C#N)c34)cn2)CC1 (centres unmarked) [Compound 184]
Measured Result: ++++ (<50 nM = ++++)

Just for reference, patent US12661410B2 is where these values come from.
